- tested_target: T1, human AXL (full length) (human, UniProt P30530 26-894)
- T1 construct: also called TH1021-AXL; TH1021-hAXL
- assay_text: flow cytometry, A431 cells, no Gas6
readout_kind: EC50 (µg/mL)
Give bare numbers, in µg/mL.

Use the examples below as a reference point.
{"columns": ["binder", "EC50, µg/mL"],
 "data": [
  ["IgG1-AXL-511 (antibody, V domains shown, also called clone 511) VH: EVQLLESGGGLVQPGGSLRLSCAASGFTFSSYAMNWVRQAPGKGLEWVSGISGSGGHTYHADSVKGRFTISRDNSKNTLYLQMNSLRAEDTAVYYCAKDRYDILTGYYNLLDYWGQGTLVTVSS VL: DIQMTQSPSSLSASVGDRVTITCRASQGISSWLAWYQQKPEEAPKSLIYAASSLQSGVPSRFSGSGSGTDFTLTISSLQPEDFATYYCQQYNSYPLTFGGGAKVEIK", 0.12],
  ["IgG1-AXL-733 (antibody, V domains shown) VH: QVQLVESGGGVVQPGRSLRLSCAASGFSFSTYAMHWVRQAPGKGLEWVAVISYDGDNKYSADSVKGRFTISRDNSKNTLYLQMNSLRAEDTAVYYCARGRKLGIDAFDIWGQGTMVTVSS VL: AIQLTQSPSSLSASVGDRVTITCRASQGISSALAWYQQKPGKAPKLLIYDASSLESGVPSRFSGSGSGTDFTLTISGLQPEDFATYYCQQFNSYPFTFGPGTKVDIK", 0.49],
  ["IgG1-AXL-183 (antibody, V domains shown) VH: QVQLQQWGAGLLKPSETLSLTCAVYGGSFSGYYWSWIRQPPGKGLEWIGEINQSGSTNYNPSLKSRVTISVDTSKNQFSLKLSSVTAADTSVYYCASGNWDHFFDYWGQGTLVTVSS VL: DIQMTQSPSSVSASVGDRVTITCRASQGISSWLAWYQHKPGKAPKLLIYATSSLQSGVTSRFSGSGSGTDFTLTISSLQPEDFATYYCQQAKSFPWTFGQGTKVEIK", 0.69]
]}

Lab note: each binder below needs its EC50 filled in.
1. IgG1-AXL-148 (antibody, V domains shown) VH: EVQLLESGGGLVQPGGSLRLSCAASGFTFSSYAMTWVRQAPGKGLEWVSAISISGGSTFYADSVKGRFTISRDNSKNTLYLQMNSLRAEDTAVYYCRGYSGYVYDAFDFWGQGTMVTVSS VL: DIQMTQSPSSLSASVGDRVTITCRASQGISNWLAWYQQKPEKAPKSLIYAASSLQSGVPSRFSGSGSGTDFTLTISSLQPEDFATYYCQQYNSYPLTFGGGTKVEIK
2. IgG1-AXL-726 (antibody, V domains shown) VH: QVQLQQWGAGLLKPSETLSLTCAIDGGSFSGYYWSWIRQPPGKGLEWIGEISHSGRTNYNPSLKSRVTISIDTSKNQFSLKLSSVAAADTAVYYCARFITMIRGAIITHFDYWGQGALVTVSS VL: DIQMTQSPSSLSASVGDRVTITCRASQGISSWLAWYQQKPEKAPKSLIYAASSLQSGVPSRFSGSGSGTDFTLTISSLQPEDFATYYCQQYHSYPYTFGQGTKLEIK

Reply:
[0.11, 0.32]

From: patent US20180326084A1
